Target of assay: human factor Xa (Homo sapiens, UniProt P00742)
Construct: released from the colourless chromogenic substrate by human factor Xa; purchased Roche
Sequence (P00742 235-488 limits assumed): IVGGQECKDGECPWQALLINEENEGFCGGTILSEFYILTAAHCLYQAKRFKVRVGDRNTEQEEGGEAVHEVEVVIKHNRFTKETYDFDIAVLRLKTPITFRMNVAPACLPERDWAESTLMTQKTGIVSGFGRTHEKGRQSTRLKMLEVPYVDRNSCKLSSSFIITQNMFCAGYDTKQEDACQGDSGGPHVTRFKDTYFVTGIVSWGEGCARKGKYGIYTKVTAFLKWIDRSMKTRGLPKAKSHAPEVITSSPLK
Sequence (P00742 41-179 partner limits assumed): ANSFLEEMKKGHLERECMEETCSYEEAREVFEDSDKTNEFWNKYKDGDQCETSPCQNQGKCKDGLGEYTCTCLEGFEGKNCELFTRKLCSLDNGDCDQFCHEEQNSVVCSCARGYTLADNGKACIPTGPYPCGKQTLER
Assay explanation: Inhibition of factor Xa, enzyme-kinetic measurement with chromogenic substrate
Format: biochemical
Settings: human factor Xa (Roche) 0.175 U/ml, substrate Chromozym X 200 μMol/l, pH 8.0, 37° C., 405 nm
Result type: IC50 (µM)
Please reply with the bare figure in µM and do not write the unit itself.

Q: Look up IC50: `Cc1cc(NC(=O)Cc2cc(C(=N)N)ccc2O)ccc1-n1cnc2c1CCCC2`
A: 0.081

Q: Which measured IC50 value corresponds to `COC(=O)c1nn(-c2ccc(C(=O)NCc3cc(C(=N)N)ccc3O)cc2C(F)(F)F)c2c1CCC2` ?
A: 0.024

Q: Any idea what its IC50 is? The compound is CCOC(=O)CC(NC(=O)c1ccc(-n2nc(CN)c3c2CCC3)c(C(F)(F)F)c1)c1cccc(C(=N)N)c1 (centres unmarked)
A: 0.0075

Q: For the compound shown here, `CNC(=O)c1nn(-c2ccc(C(=O)NCc3cc(C(=N)N)ccc3O)cc2C(F)(F)F)c2c1CCC2` , give the reported IC50.
A: 0.016

Q: Consider the compound shown here: CCOC(=O)CC(NC(=O)c1ccc(-n2cnc3c2CCCC3)c(C(F)(F)F)c1)c1cccc(C(=N)N)c1 (centres unmarked) What is its recorded IC50?
A: 0.028
